test system: Lysine-specific demethylase 5A (Homo sapiens)
assay protocol: Inhibition of C-terminal FLAG-tagged human KDM5A expressed in Sf9 cells at 50 uM pre-incubated for 4 hrs before substrate addition and measured after 1 hr by AlphaScreen assay
Calls of active or inactive are those of the source. The rule behind the calls is not given here.

item smiles	test system	inhibition
CC(=O)Nc1ccc(C(=O)O)cc1O	Lysine-specific demethylase 5A (Homo sapiens)	Active
CC(=O)Nc1cc(C(=O)O)ccc1O	Lysine-specific demethylase 5A (Homo sapiens)	Active
O=CNc1ccc(C(=O)O)cc1O	Lysine-specific demethylase 5A (Homo sapiens)	87%
O=CNc1cc(C(=O)O)ccc1O	Lysine-specific demethylase 5A (Homo sapiens)	73%

----------
test system: Lysine-specific demethylase 5A (Homo sapiens, UniProt P29375)
Sequence (P29375 whole entry): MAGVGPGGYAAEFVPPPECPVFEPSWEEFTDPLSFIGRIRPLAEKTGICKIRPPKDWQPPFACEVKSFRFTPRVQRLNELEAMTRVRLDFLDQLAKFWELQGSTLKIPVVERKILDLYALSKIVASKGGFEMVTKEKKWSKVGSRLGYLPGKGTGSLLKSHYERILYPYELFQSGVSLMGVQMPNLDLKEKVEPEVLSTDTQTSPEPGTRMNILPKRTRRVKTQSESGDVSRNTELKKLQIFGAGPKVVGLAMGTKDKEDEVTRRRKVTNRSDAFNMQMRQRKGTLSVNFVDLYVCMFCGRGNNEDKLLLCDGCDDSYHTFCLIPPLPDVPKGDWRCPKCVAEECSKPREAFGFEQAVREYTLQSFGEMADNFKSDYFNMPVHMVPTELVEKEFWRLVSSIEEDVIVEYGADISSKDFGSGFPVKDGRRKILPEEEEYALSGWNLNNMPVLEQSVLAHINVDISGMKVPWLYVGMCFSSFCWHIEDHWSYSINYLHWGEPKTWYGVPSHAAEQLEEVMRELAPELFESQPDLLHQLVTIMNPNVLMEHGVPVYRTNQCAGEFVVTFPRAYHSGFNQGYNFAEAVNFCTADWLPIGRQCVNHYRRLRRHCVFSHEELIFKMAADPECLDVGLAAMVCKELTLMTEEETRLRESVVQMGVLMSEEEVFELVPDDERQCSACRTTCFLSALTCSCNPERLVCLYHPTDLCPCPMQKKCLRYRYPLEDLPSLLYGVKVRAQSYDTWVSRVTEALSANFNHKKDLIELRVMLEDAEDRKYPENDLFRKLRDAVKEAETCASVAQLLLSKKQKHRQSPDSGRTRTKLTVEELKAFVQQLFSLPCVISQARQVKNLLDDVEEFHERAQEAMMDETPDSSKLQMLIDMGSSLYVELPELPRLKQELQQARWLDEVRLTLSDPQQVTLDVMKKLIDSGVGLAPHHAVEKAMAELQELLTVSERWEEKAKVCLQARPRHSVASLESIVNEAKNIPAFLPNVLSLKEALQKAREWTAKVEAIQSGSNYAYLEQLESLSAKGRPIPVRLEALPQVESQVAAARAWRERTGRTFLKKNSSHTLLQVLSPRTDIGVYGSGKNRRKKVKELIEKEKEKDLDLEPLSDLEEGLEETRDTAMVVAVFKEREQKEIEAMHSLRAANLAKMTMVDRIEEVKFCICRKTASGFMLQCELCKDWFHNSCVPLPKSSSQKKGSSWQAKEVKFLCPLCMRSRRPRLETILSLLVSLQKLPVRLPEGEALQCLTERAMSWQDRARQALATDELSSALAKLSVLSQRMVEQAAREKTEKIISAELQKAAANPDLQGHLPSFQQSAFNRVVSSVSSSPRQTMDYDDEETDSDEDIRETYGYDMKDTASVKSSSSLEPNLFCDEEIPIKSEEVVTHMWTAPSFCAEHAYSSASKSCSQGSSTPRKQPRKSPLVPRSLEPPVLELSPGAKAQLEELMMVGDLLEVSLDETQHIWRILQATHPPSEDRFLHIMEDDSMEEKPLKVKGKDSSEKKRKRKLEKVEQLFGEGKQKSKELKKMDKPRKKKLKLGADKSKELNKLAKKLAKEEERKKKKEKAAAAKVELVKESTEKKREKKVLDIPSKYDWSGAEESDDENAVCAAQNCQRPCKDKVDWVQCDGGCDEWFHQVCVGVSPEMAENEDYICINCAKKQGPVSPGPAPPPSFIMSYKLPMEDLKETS
result type: IC50 (µM)
Write the number in µM without appending the unit.

Value (IC50, Lysine-specific demethylase 5A (Homo sapiens, UniProt P29375)) for record O=CNc1ccc(C(=O)O)cc1O = 46
